# test_summary: Selectivity index, ratio of IC50 for rat L6 cells to IC50 for bloodstream forms of Trypanosoma brucei 221
# Format: toxicity, cell-based
# experimental_conditions: L6 cells versus bloodstream forms of Trypanosoma brucei 221, read-out: Ratio IC50
Recorded selectivity ratio, one value per entry.
Give only the figure.

**Query** Can you share its selectivity ratio? I mean this molecule: `CC1=C[C@H]2Cc3nc4cc(Cl)ccc4c(NCc4ccc(CNc5c6c(nc7cc(Cl)ccc57)C[C@@H]5C=C(C)C[C@H]6C5)cc4)c3[C@@H](C1)C2`
**Result** 28.2

**Query** Can you share its selectivity ratio? I mean this molecule: `CC1=C[C@H]2Cc3nc4cc(Cl)ccc4c(NCCCCCCNc4c5c(nc6cc(Cl)ccc46)C[C@@H]4C=C(C)C[C@H]5C4)c3[C@@H](C1)C2`
**Result** 1.8

**Query** Can you share its selectivity ratio? I mean this molecule: `CC1=C[C@H]2Cc3nc4cc(Cl)ccc4c(NCCCCCCCCNc4c5c(nc6cc(Cl)ccc46)C[C@@H]4C=C(C)C[C@H]5C4)c3[C@@H](C1)C2`
**Result** 9.5

**Query** Can you share its selectivity ratio? I mean this molecule: `CC1=C[C@H]2Cc3nc4cc(Cl)ccc4c(NCCCCCCCCCCNc4c5c(nc6cc(Cl)ccc46)C[C@@H]4C=C(C)C[C@H]5C4)c3[C@@H](C1)C2`
**Result** 15.4

**Query** Can you share its selectivity ratio? I mean this molecule: `CC1=C[C@H]2Cc3nc4cc(Cl)ccc4c(NCCCCCCCCCCCCNc4c5c(nc6cc(Cl)ccc46)C[C@@H]4C=C(C)C[C@H]5C4)c3[C@@H](C1)C2`
**Result** 37.5

----------
# assayed_target: Acetylcholinesterase (Homo sapiens, UniProt P22303)
# Sequence (P22303 whole entry): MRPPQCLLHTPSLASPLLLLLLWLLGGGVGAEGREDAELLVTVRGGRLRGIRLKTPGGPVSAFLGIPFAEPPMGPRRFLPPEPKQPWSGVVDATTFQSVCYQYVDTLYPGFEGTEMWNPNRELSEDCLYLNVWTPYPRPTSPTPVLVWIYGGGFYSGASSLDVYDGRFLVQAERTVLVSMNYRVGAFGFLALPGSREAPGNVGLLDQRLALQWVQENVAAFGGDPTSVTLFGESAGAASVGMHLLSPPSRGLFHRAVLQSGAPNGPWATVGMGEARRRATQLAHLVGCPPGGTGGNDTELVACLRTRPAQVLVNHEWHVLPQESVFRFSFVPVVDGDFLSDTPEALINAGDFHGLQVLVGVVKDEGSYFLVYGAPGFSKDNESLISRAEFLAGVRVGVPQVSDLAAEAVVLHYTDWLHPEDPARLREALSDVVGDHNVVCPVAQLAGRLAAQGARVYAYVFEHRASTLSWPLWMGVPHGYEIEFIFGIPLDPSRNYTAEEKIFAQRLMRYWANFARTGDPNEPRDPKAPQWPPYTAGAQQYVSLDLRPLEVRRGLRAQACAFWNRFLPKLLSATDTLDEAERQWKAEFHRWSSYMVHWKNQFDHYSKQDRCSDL
# test_summary: Inhibition of human recombinant AChE using acetylthiocholine iodide as substrate preincubated for 20 mins by Ellman method
quantity_kind: pIC50
The value called pIC50 is obtained by taking minus log10 of the concentration in mol/L.

Previously resolved entries follow.
chemical_structure: CC1=C[C@H]2Cc3nc4cc(Cl)ccc4c(NCCCCCCCCCCCCNc4c5c(nc6cc(Cl)ccc46)C[C@@H]4C=C(C)C[C@H]5C4)c3[C@@H](C1)C2
quantity_kind: pIC50
experimental_result: 6.37

chemical_structure: CC1=C[C@H]2Cc3nc4cc(Cl)ccc4c(NCCCCCCCCNc4c5c(nc6cc(Cl)ccc46)C[C@@H]4C=C(C)C[C@H]5C4)c3[C@@H](C1)C2
quantity_kind: pIC50
experimental_result: 7.14

chemical_structure: CC1=C[C@H]2Cc3nc4cc(Cl)ccc4c(NCCCCCCCCCCNc4c5c(nc6cc(Cl)ccc46)C[C@@H]4C=C(C)C[C@H]5C4)c3[C@@H](C1)C2
quantity_kind: pIC50
experimental_result: 7.76

**Query** Can you share its pIC50? I mean this compound: `CC1=C[C@H]2Cc3nc4cc(Cl)ccc4c(NCCCCCCNc4c5c(nc6cc(Cl)ccc46)C[C@@H]4C=C(C)C[C@H]5C4)c3[C@@H](C1)C2`
**Result** 6.72
